# measurement.notes: Induction of erythroid differentiation in DBA/2J mouse Friend erythroleukemia cells assessed as hemoglobin level per 10^7 cells after 3 to 6 days relative to control
# Assay type: functional, Leukemia cell
Lab note: anything with Activity below 20 µg is marked Fulfilled; values at 20 µg or higher are marked Not fulfilled.

- given.smiles: "CC(=O)Nc1cccc[n+]1[O-]"
  discrete.label: "Not fulfilled"
- given.smiles: "CC(=O)Nc1ccc[n+]([O-])c1"
  discrete.label: "Fulfilled"
- given.smiles: "CC(=O)Nc1ccccn1"
  discrete.label: "Not fulfilled"
- given.smiles: "CC(=O)Nc1cccnc1"
  discrete.label: "Fulfilled"
- given.smiles: "[O-][n+]1ccc(-c2ccccc2)cc1"
  discrete.label: "Fulfilled"
- given.smiles: "CC(=O)Nc1cccc(NC(C)=O)n1"
  discrete.label: "Fulfilled"
